- measurement.target: Multidrug efflux pump LfrA (Mycobacterium smegmatis (strain ATCC 700084 / mc(2)155))
- assay.remarks: Inhibition of LfrA in Mycobacterium smegmatis MC2 155 ATCC 700084 assessed as decrease in norfloxacin MIC at 25 ug/ml after 72 hrs by MTT assay relative to control
- measurement.setup: Mycolicibacterium smegmatis MC2 155
experimental.endpoint: fold change (FC)
# answer = number (no unit)

Below, each entry is followed by its recorded fold change (FC) result.
# mol, fold change (FC)
data = [
    ("Cc1cccn2c(=O)c3cccc(Cl)c3nc12", 4),
    ("Cc1cccn2c(=O)c3cc(Br)ccc3nc12", 4),
    ("O=c1c2cccc(Cl)c2nc2c3ccccc3ccn12", 4),
    ("O=c1c2cccc(Cl)c2nc2ccccn12", 8),
    ("Cc1ccn2c(=O)c3cccc(Cl)c3nc2c1", 4),
    ("Cc1cccn2c(=O)c3ccc(Br)cc3nc12", 4),
]

Reported fold change (FC), compound O=c1c2ccccc2nc2ccccn12 : ____
8

What do you get for Cc1ccn2c(=O)c3cc(Br)ccc3nc2c1 ?
4

###

fold change (FC) for assorted compounds
- measurement.target: Multidrug efflux pump LfrA (Mycobacterium smegmatis (strain ATCC 700084 / mc(2)155)) (UniProt A0R5K5)
- Sequence (whole entry): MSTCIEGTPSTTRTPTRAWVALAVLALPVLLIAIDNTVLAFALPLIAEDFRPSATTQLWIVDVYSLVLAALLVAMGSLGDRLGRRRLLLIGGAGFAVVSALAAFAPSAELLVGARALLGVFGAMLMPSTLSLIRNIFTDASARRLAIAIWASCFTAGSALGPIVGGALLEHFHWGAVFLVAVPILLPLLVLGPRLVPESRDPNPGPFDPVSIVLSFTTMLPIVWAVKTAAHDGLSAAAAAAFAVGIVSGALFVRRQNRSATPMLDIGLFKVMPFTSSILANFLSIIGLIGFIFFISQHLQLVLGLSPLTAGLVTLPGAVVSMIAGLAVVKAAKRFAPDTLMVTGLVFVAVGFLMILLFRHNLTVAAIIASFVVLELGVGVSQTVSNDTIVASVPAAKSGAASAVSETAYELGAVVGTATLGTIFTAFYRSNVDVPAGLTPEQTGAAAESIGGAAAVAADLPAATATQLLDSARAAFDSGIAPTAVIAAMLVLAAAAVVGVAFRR
- assay.remarks: Inhibition of LfrA in Mycobacterium smegmatis MC2 155 ATCC 700084 assessed as decrease in EtBr MIC at 100 ug/ml after 72 hrs by MTT assay relative to control
- measurement.setup: Mycolicibacterium smegmatis MC2 155

# mol, experimental.endpoint, endpoint.value
rows = [
    ("O=c1c2ccc(Cl)cc2nc2ccccn12", "fold change (FC)", 8),
    ("Cc1cccn2c(=O)c3cccc(Cl)c3nc12", "fold change (FC)", 8),
    ("Cc1cccn2c(=O)c3ccccc3nc12", "fold change (FC)", 8),
    ("Cc1ccn2c(=O)c3cccc(F)c3nc2c1", "fold change (FC)", 8),
    ("O=c1c2cccc(Cl)c2nc2c3ccccc3ccn12", "fold change (FC)", 2),
]

Consider the compound shown here: O=c1c2ccccc2nc2ccccn12 What is its recorded fold change (FC)?
8

What would you report for O=c1c2cccc(Cl)c2nc2ccc(F)cn12 ?
8

What do you get for O=c1c2cccc(Cl)c2nc2c(Cl)cccn12 ?
16

Same lookup for O=c1c2ccccc2nc2c(F)cc(F)cn12 , please.
16
